Target: UniProt:P49759
Experiment: Inhibition of recombinant human CLK1 (130 to end residues) using ERMRPRKRQGSVR as substrate incubated for 40 mins in presence of [gamma-33ATP] by scintillation counting based radiometry assay
Property Label: log10(IC50) (log10 of the value in nM)
Values are log10 of IC50 in nM.

> print(dat)
                           smiles.structure  measured.result
1  Cn1cc(-c2ccc3ncc(C(=O)NCc4ccc(Cl)cc4)n3c2)cn1             1.15
2  C[C@H](NC(=O)c1cnc2ccc(-c3cnn(C)c3)cn12)c1ccccc1             2.47
3  COc1ccc(CNC(=O)c2cnc3ccc(-c4ccc5ocnc5c4)cn23)cc1             2.09
4  C[C@H](NC(=O)c1cnc2ccc(-c3cnn(C)c3)cn12)c1ccc(Cl)cc1             2.60
5  CC(C)Oc1ccc(CNC(=O)c2cnc3ccc(-c4cnn(C)c4)cn23)cc1             0.90

Attention now turns to another entry.
## Task Suppose we examine the molecule C[C@@H](NC(=O)c1cnc2ccc(-c3cnn(C)c3)cn12)c1ccc(Cl)cc1 ; what log10(IC50) value has been reported?
## Result 1.04

----------
Molecular target: Dual specificity tyrosine-phosphorylation-regulated kinase 1B (Homo sapiens)
Sequence (Q9Y463 whole entry): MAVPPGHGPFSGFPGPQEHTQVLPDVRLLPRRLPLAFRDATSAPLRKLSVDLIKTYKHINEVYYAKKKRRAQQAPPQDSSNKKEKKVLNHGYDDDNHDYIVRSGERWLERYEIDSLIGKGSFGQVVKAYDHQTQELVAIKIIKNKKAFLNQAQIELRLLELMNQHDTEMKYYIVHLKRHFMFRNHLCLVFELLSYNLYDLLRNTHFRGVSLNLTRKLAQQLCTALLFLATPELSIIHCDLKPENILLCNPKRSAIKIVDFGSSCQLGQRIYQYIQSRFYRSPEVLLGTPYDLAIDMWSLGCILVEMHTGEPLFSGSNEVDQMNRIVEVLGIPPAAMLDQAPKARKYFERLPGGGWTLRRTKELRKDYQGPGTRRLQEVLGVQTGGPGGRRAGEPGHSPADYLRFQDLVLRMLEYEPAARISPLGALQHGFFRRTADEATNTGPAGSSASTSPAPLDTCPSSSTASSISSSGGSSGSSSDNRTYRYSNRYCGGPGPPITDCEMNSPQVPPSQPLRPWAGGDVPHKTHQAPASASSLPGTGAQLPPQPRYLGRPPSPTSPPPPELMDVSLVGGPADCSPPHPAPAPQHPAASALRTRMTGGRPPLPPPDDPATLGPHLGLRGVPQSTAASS
Assay: Inhibition of recombinant full length human DYRK1B using RRRFRPASPLRGPPK as substrate incubated for 40 mins in presence of [gamma-33ATP] by scintillation counting based radiometry assay
Property Label: pIC50
Bear in mind: pIC50 is minus log10 of a mol/L concentration; give just that figure.

## Task Report pIC50 for COc1ccc(CNC(=O)c2cnc3ccc(-c4ccc5ncccc5c4)cn23)cc1 please.
## Result 6.83

----------
Biological target: Dual specificity protein kinase CLK2 (Homo sapiens, UniProt P49760)
Sequence (P49760 whole entry): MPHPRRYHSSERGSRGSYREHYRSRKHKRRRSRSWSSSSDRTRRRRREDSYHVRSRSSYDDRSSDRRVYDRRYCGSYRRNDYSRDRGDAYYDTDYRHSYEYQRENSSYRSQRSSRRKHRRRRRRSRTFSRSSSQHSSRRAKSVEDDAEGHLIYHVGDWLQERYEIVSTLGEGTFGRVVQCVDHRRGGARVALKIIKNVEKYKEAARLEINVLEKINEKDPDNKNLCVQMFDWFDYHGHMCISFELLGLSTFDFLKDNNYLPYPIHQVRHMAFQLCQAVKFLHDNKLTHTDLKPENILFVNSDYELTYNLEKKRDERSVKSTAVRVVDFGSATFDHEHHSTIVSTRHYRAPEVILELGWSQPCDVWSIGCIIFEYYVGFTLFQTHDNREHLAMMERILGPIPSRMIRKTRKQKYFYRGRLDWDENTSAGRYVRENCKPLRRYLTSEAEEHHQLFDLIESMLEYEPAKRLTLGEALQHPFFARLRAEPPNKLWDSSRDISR
Assay: Inhibition of recombinant human CLK2 (138 to end residues) using YRRAAVPPSPSLSRHSSPHQS(p)EDEEE as substrate incubated for 40 mins in presence of [gamma-33ATP] by scintillation counting based radiometry assay
Property Label: IC50 (nM)
All answers are understood in nM, so give the number only.

## Task Lab request: please report IC50 under test system Dual specificity protein kinase CLK2 (Homo sapiens, UniProt P49760) for COc1ccc(CNC(=O)c2cnc3ccc(-c4ccc5ncccc5c4)cn23)cc1
## Result 50

----------
Molecular target: Dual specificity tyrosine-phosphorylation-regulated kinase 1A (Homo sapiens)
Assay: Inhibition of recombinant full length human DYRK1A using RRRFRPASPLRGPPK as substrate incubated for 40 mins in presence of [gamma-33ATP] by scintillation counting based radiometry assay
Property Label: IC50
Remember to put the unit after the number in your answer.

## Task If you can, please state the reported IC50 value of COc1ccc(CNC(=O)c2cnc3ccc(-c4ccc5ncccc5c4)cn23)cc1 .
## Result 10 nM

----------
Target: Dual specificity protein kinase CLK1 (Homo sapiens)
Sequence (P49759 whole entry): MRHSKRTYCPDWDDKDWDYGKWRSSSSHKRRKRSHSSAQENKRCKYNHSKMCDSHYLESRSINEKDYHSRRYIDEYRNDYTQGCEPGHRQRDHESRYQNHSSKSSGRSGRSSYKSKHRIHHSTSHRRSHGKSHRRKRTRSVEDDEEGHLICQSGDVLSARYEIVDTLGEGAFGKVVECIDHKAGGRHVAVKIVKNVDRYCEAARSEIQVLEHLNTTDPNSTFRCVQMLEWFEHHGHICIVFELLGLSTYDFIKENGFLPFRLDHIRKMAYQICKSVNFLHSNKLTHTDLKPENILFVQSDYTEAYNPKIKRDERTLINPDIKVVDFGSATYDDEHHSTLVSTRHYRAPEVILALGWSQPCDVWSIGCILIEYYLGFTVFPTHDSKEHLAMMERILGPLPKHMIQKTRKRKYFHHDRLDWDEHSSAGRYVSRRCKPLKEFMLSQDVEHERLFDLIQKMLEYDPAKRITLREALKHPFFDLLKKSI
Experiment: Inhibition of recombinant human CLK1 (130 to end residues) using ERMRPRKRQGSVR as substrate incubated for 40 mins in presence of [gamma-33ATP] by scintillation counting based radiometry assay
pIC50: −log10 of the molar value.
Cut-off 8 on pIC50, inclusive. At or above means yes; below means no.

> print(dat)
                           smiles.structure  class.name
1  COc1ccc(CNC(=O)c2cnc3ccc(-c4c(C)noc4C)cn23)cc1          no
2  COc1ccc(CNC(=O)c2cnc3ccc(-c4ccc5ccccc5c4)cn23)cc1          no
3  C[C@H](NC(=O)c1cnc2ccc(-c3ccc4ncccc4c3)cn12)c1ccccc1          no

## Task Kindly determine if pIC50 recorded for COc1ccc(NNC(=O)c2cnc3ccc(-c4ccc5ncccc5c4)cn23)cc1 is above or exactly 8.
## Result yes

## Task Note, next up: COc1ccc(CNC(=O)c2cnc3ccc(-c4ccc5ncccc5c4)cn23)cc1
## Result yes

## Task And for CNC(=O)c1cnc2ccc(-c3cnn(C)c3)cn12 ?
## Result no

## Task Can you check COc1ccc([C@H](C)NC(=O)c2cnc3ccc(-c4ccc5ncccc5c4)cn23)cc1 next?
## Result no

## Task Moving on to the next molecule: COc1ccc([C@H](C)NC(=O)c2cnc3ccc(-c4cnn(C)c4)cn23)cc1
## Result no

Source listed as ChEMBL document CHEMBL4813966.
